# experiment_notes: Ratio of drug level in brain to plasma in sc dosed CD-1 mouse
# Assay type: ADME, organism-based
# reported_conditions: read-out: BPR
quantity_measured: Kp
Give a plain numeric answer without units written out.

Exercise: Identify measured Kp associated with Cc1cccc(C)c1C(=O)N[C@H](c1ccccc1)C12CCC(CC1)CN2C
Key: 0.4

* * *

# experiment_notes: Volume of distribution at steady state in Sprague-Dawley rat at 3 umol/kg, iv
# Format: ADME, organism-based
# reported_conditions: in vivo, read-out: Vdss
quantity_measured: Vd
Number first, unit second: that is the form wanted.

Exercise: Identify measured Vd associated with Cc1cccc(C)c1C(=O)N[C@H](c1ccccc1)C12CCC(CC1)CN2C
Key: 1.8 L/kg
